Reference source: patent US12577206B2

- Measurement Target: human FPR2 (Homo sapiens, UniProt P25090)
- Sequence (P25090 whole entry): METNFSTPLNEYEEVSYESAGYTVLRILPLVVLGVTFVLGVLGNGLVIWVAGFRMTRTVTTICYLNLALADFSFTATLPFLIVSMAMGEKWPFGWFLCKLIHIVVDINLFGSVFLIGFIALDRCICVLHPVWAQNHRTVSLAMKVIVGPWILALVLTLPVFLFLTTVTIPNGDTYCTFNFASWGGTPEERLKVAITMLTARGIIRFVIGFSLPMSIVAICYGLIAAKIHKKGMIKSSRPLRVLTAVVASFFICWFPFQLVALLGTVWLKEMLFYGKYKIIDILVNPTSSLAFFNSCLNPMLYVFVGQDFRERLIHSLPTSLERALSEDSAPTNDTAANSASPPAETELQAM
- Assay Notes: FPR2 cyclic adenosine monophosphate (cAMP) assay
- Condition Details: CHO cells overexpressing human FPR2; forskolin 5 μM; inhibition of cAMP production; HTRF; read-out: hFPR2 cAMP2 EC50
pEC50: −log10 of the molar value.
Quick rule: pEC50 of at least 8 means Met, below that means Not met.

Does COc1cc(F)c(-c2c(NC(=O)c3ccc(OC(F)F)cc3)c(=O)n(-c3nc(N4CCN(C)CC4)ccc3C(F)(F)F)n2C)c(F)c1 [Example 135] have a reported pEC50 of at least 8?
Met

Does COc1cc(F)c(-c2c(NC(=O)c3ccc(OC(F)F)cc3)c(=O)n(-c3cc(F)cc(C(C)(C)O)c3)n2C)c(F)c1 [Example 148] have a reported pEC50 of at least 8?
Met

Does COc1cccc(-n2c(=O)c(NC(=O)c3ccc(OC(F)F)cc3)c(-c3c(F)cc(OC)cc3F)n2C)c1 [Example 112] have a reported pEC50 of at least 8?
Met

Does COc1cc(F)c(-c2c(NC(=O)c3ccc(OC(F)F)cc3)c(=O)n(-c3cccn(C)c3=O)n2C)c(F)c1 [Example 395] have a reported pEC50 of at least 8?
Not met

Does COc1cc(F)c(-c2c(NC(=O)c3ccc(OC(F)F)cc3)c(=O)n(-c3cc(C)cc(OC4CCOC4)n3)n2C)c(F)c1 (stereo not shown) [Example 360] have a reported pEC50 of at least 8?
Met

Does COc1cc(F)c(-c2c(NC(=O)c3ccc(OC(F)F)cc3)c(=O)n(-c3nc(Cl)ccc3N(C)C)n2C)c(F)c1 [Example 209] have a reported pEC50 of at least 8?
Met

Does COc1cc(F)c(-c2c(NC(=O)c3ccc(OC(F)F)cc3)c(=O)n(-c3nc(C4CCN(S(C)(=O)=O)CC4)ccc3Cl)n2C)c(F)c1 [Example 316] have a reported pEC50 of at least 8?
Met

Does COc1cc(C2CCCNC2)nc(-n2c(=O)c(NC(=O)c3ccc(OC(F)F)cc3)c(-c3c(F)cc(OC)cc3F)n2C)c1 (stereo not shown) [Example 347] have a reported pEC50 of at least 8?
Met

Does COc1cc(F)c(-c2c(NC(=O)c3ccc(C4CC4)cc3)c(=O)n(-c3ccccc3)n2C)c(F)c1 [Example 16] have a reported pEC50 of at least 8?
Not met

Does COc1cc(F)c(-c2c(NC(=O)c3ccc(OC(F)F)cc3)c(=O)n(-c3cccc(N4CCN(CCS(C)(=O)=O)CC4)n3)n2C)c(F)c1 [Example 206] have a reported pEC50 of at least 8?
Not met

Does Cn1c(-c2ccc(Cl)cc2)c(NC(=O)c2ccc(OC(F)F)cc2)c(=O)n1-c1ncccc1C(F)(F)F [Example 249] have a reported pEC50 of at least 8?
Not met
